Biological target: GST-tagged ROR gamma ligand binding domain (LBD) (Homo sapiens)
Construct: purchased Invitrogen
Sequence (P51449 269-508 limits assumed): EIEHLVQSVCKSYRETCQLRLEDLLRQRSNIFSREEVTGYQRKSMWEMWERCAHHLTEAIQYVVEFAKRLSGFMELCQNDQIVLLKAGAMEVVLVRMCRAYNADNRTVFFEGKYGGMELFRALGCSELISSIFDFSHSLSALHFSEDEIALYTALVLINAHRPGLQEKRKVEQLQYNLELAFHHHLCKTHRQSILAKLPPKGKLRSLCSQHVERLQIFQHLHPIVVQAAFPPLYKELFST
Experiment: TR-FRET assay for ROR gamma (LanthaScreen co-activator peptide recruitment)
Format: biochemical
Conditions: compound concentration 1 μM; TR-FRET ratio 520/495, percent of control
MEASUREMENT_KIND: inhibition at 1 µM (%)
Numbers only; they are read as %.

(Q) Which inhibition at 1 µM value belongs to `CCC(F)(F)c1ccc(CC(=O)Nc2ccc(-c3nccnc3N(C)c3ccc(Cl)cc3)cc2)cc1` ?
(A) 56.5

(Q) Which inhibition at 1 µM value belongs to `CCC(F)(F)c1ccc(CC(=O)Nc2ccc(-c3nccnc3-c3ccc(F)cc3C)cc2)cc1` ?
(A) 76.9

(Q) Which inhibition at 1 µM value belongs to CCC(F)(F)c1ccc(CC(=O)Nc2ccc(-c3nccnc3NC(C)c3ccccc3)cc2)cc1 (centres unmarked) ?
(A) 80.3

(Q) Which inhibition at 1 µM value belongs to `CCC(F)(F)c1ccc(CC(=O)Nc2ccc(-c3nccnc3OCc3c(C)noc3C)cc2)cc1` ?
(A) 58.8

(Q) Which inhibition at 1 µM value belongs to CC(O)C(F)(F)c1ccc(CC(=O)Nc2ccc(-c3nccnc3-c3ccccc3Cl)cc2)cc1 (centres unmarked) ?
(A) 71.1

(Q) Which inhibition at 1 µM value belongs to `CCC(F)(F)c1ccc(CC(=O)Nc2ccc(-c3nccc(=O)n3-c3ccc(F)cc3Cl)cc2)cc1` ?
(A) 84

(Q) Which inhibition at 1 µM value belongs to `CCc1ccccc1-c1nccnc1-c1ccc(NC(=O)Cc2ccc(C(F)(F)[C@H](C)O)cc2)cc1` ?
(A) 78.6

(Q) Which inhibition at 1 µM value belongs to `CCC(F)(F)c1ccc(CC(=O)Nc2ccc(-c3nccnc3Oc3ccccc3Cl)cc2)cc1` ?
(A) 16.3

---

Biological target: GST-tagged ROR gamma ligand binding domain (LBD) (Homo sapiens, UniProt P51449)
Construct: purchased Invitrogen
Sequence (P51449 269-508 limits assumed): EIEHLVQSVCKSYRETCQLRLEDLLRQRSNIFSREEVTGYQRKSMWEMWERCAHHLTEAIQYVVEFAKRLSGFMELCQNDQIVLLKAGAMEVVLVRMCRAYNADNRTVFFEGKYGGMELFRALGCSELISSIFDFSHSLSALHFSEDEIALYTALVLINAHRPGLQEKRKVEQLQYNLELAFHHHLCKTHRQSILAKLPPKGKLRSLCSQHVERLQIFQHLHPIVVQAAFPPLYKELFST
Test: TR-FRET assay for ROR gamma (LanthaScreen co-activator peptide recruitment)
Format: biochemical
Conditions: compound concentration 1 μM; TR-FRET ratio 520/495, percent of control
Rule for this label: rule met means inhibition at 1 µM is less than 70%; rule not met means inhibition at 1 µM is at least 70%.

(Q) Report whether reported inhibition at 1 µM is lower than 70% (strictly) for Cc1noc(C)c1CCOc1nccnc1-c1ccc(NC(=O)Cc2ccc(C(F)(F)C(C)O)cc2)cc1 (stereo not drawn) [Example 90]
(A) rule not met

(Q) Report whether reported inhibition at 1 µM is lower than 70% (strictly) for CCC(F)(F)c1ccc(CC(=O)Nc2ccc(-c3nccnc3-c3ccc(C)cc3)cc2)cc1 [Example 13]
(A) rule not met

(Q) Report whether reported inhibition at 1 µM is lower than 70% (strictly) for CCC(F)(F)c1ccc(CC(=O)Nc2ccc(-c3nccnc3N[C@@H](C)c3ccc(Cl)cc3)cc2)cc1 [Example 63]
(A) rule not met

(Q) Report whether reported inhibition at 1 µM is lower than 70% (strictly) for CC(O)C(F)(F)c1ccc(CC(=O)Nc2ccc(-c3nccnc3N[C@@H](C)c3ccccc3Cl)c(F)c2)cc1 (stereo partly drawn) [Example 74]
(A) rule not met

(Q) Report whether reported inhibition at 1 µM is lower than 70% (strictly) for CCC(F)(F)c1ccc(CC(=O)Nc2ccc(-c3nccnc3-c3ccc(C(F)(F)F)cc3)cc2)cc1 [Example 12]
(A) rule not met

(Q) Report whether reported inhibition at 1 µM is lower than 70% (strictly) for CC(O)C(F)(F)c1ccc(CC(=O)Nc2ccc(-c3nccnc3NCC3CCCCC3)cc2)cc1 (stereo not drawn) [Example 71]
(A) rule met

(Q) Report whether reported inhibition at 1 µM is lower than 70% (strictly) for CCC(F)(F)c1ccc(CC(=O)Nc2ccc(-c3nccnc3OC(C)c3ccccc3C3CC3)cc2)cc1 (stereo not drawn) [Example 81]
(A) rule not met

(Q) Report whether reported inhibition at 1 µM is lower than 70% (strictly) for Cc1ccc([C@@H](C)Oc2nccnc2-c2ccc(NC(=O)Cc3ccc(C(F)(F)C(C)O)cc3)cc2)c(C)c1 (stereo partly drawn) [Example 98]
(A) rule not met

(Q) Report whether reported inhibition at 1 µM is lower than 70% (strictly) for CCC(F)(F)c1ccc(CC(=O)Nc2ccc(-c3nccnc3N(C)[C@@H](C)c3ccc(Cl)cc3)cc2)cc1 [Example 65]
(A) rule not met

(Q) Report whether reported inhibition at 1 µM is lower than 70% (strictly) for CCC(F)(F)c1ccc(CC(=O)Nc2ccc(-c3nccnc3N[C@@H](C)c3ccc(F)cc3Cl)cc2)cc1 [Example 70]
(A) rule not met

(Q) Report whether reported inhibition at 1 µM is lower than 70% (strictly) for CCC(F)(F)c1ccc(CC(=O)Nc2ccc(-c3nccnc3-c3ccc(Cl)cc3Cl)cc2)cc1 [Example 50]
(A) rule not met

(Q) Report whether reported inhibition at 1 µM is lower than 70% (strictly) for CCC(F)(F)c1ccc(CC(=O)Nc2ccc(-c3nccnc3N3CCN(C(=O)C4CC4)CC3)cc2)cc1 [Example 96]
(A) rule met

(Q) Report whether reported inhibition at 1 µM is lower than 70% (strictly) for CC(O)C(F)(F)c1ccc(CC(=O)Nc2ccc(-c3nccnc3N3CCC(F)(F)CC3)cc2)cc1 (stereo not drawn) [Example 18]
(A) rule met
